The measured values listed here are drawn from patent US20200087416A1.

target_system: T1, human PCSK9 (PCSK9 antigen, SEQ ID NO. 53) (human, UniProt A8T644 31-152; Q8NBP7 153-692, Biotin-labelled on amines in the MSD-SET and sorting experiments; positions not given.)
T1 construct: Biotin-labelled in MSD-SET; also called PCSK9-WT; PCSK9 protein
assay_comment: MSD-SET, Fab with biotin-PCSK9 in solution, IgG on plate, pH 6.0
pKd: −log10 of the molar value.
value_type: pKd

INSERT INTO results (binder, measured_result) VALUES
  ('ADI-10087 Fab (Fab, V domains shown) VH: QLQLQESGPGLVKPSETLSLTCTVSGGSISSASYYWSWIRQPPGKGLEWIGSINYRGSTYYNPSLKSRVTISVDTSKNQFSLKLSSVTAADTAVYYCARENSGVVPAAGPNWFGPWGQGTLVTVSS VL: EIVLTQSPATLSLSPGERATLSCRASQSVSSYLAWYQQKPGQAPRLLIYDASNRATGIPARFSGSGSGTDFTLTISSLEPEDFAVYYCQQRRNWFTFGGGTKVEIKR', 11.01),
  ('ADI-10090 Fab (Fab, V domains shown) VH: QLQLQESGPGLVKPSETLSLTCTVSGGSIWSSSYYWTWIRQPPGKGLEWIGSINYRGSTYYNPSLKSRVTISVDTSKNQFSLKLSSVTAADTAVYYCARENSGVVPAAGPNWFDPWGQGTLVTVSS VL: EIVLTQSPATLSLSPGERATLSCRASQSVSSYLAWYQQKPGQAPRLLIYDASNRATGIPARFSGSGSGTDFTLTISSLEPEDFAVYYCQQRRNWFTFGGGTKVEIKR', 10.68),
  ('ADI-10086 Fab (Fab, V domains shown) VH: QLQLQESGPGLVKPSETLSLTCTVSGGSIRSSAYYWGWIRQPPGKGLEWIGSINYRGSTYYNPSLKSRVTISVDTSKNQFSLKLSSVTAADTAVYYCARENSGVVPAAGPNWFGPWGQGTLVTVSS VL: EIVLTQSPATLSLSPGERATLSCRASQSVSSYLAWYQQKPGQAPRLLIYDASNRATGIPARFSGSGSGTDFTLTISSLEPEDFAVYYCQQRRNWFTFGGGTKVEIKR', 10.89);
